# Tested on: Ovcar3-GTL catenae
# Assay Text: Ovcar3-GTL catena drug sensitivity / proliferation screen (alamarBlue, 384-well)
# Stated Conditions: read-out: IC50 (μM) No coat, pathway-specific inhibitors; catena cells without glycocalyx coat
Observed Property: IC50 (µM)

INSERT INTO assay_data (input_smiles, measure_unit, measured_value) VALUES
  ('COc1cc2c(Oc3ccc(NC(=O)C4(C(=O)Nc5ccc(F)cc5)CC4)cc3F)ccnc2cc1OCCCN1CCOCC1', 'µM', 0.05);

[P] Cc1cc(Nc2cc(N3CCN(C)CC3)nc(Sc3ccc(NC(=O)C4CC4)cc3)n2)[nH]n1
[Q] COc1cc2nccc(Oc3ccc(NC(=O)Nc4cc(C)on4)c(Cl)c3)c2cc1OC
// query Hi, I'm comparing P with Q and wondering which one has the bigger number for IC50. Any idea? Return value: the label identifying the chosen record.
// result Q
(Q: 13.4 µM, P: 0.05 µM)

###

# Tested on: Ovcar3-GTL catenae
# Assay Text: Ovcar3-GTL catena drug sensitivity / proliferation screen (alamarBlue, 384-well)
# Stated Conditions: read-out: IC50 (μM) With coat
# maps each entry to its IC50
Dear colleague, please return just the value in µM, with no unit written.

Please review the following examples before continuing.
INSERT INTO assay_data (compound, observed_property, measure_unit, measured_value) VALUES
  ('CC[C@@H]1C(=O)N(C)c2cnc(Nc3ccc(C(=O)NC4CCN(C)CC4)cc3OC)nc2N1C1CCCC1 [BI 2536]', 'IC50', 'µM', 13.4),
  ('Oc1cccc(-c2nc(N3CCOCC3)c3oc4ncccc4c3n2)c1 [PI-103]', 'IC50', 'µM', 13.4);

// query Record request: IC50 value, item Cc1ccc(C(=O)Nc2ccc(CN3CCN(C)CC3)c(C(F)(F)F)c2)cc1C#Cc1cnc2cccnn12 [AP24534 (Ponatinib), Ponatinib]
// result 13.4

###

# Test system: Ovcar3-GTL catenae
# Assay Text: Ovcar3-GTL catena drug sensitivity / proliferation screen (alamarBlue, 384-well)
# Stated Conditions: read-out: IC50 (μM) No coat, pathway-specific inhibitors; catena cells without glycocalyx coat
Observed Property: IC50 (µM)

INSERT INTO results (input_smiles, observed_property, measure_unit, measured_value) VALUES
  ('COCCNCc1ccc(-c2cc3nccc(Oc4ccc(NC(=S)NC(=O)Cc5ccc(F)cc5)cc4F)c3s2)nc1', 'IC50', 'µM', 3.14),
  ('Cc1[nH]c2ccccc2c1CCNCc1ccc(/C=C/C(=O)NO)cc1', 'IC50', 'µM', 0.01),
  ('Cc1ccc(NC(=O)c2ccc(CN3CCN(C)CC3)cc2)cc1Nc1nc(-c2cccnc2)cs1', 'IC50', 'µM', 13.4),
  ('CN1CCN(c2ccc3nc(-c4c(N)c5c(F)cccc5[nH]c4=O)[nH]c3c2)CC1', 'IC50', 'µM', 3.14);

[I] NC1(c2ccc(-c3nc4ccn5c(=O)[nH]nc5c4cc3-c3ccccc3)cc2)CCC1
[II] CC(=O)c1c(C)c2cnc(Nc3ccc(N4CCNCC4)cn3)nc2n(C2CCCC2)c1=O
// query Select one: I or II . Criterion: greater recorded IC50. API: response body contains the label of the selected item.
// result II
(II: 13.4 µM, I: 3.14 µM)

###

# Test system: Ovcar3-GTL catenae
# Assay Text: Ovcar3-GTL catena drug sensitivity / proliferation screen (alamarBlue, 384-well)
# Stated Conditions: read-out: IC50 (μM) Addition on Day 6; Ovcar3-GTL catenae; compound added six days after seeding (established or substantial glycocalyx)
Observed Property: IC50 (µM)
# output: bare number, implied unit µM

Below: 2 compounds and their reported IC50.
INSERT INTO results (input_smiles, assayed_system, measured_value) VALUES
  ('CO[C@@]12[C@H](COC(N)=O)C3=C(C(=O)C(C)=C(N)C3=O)N1C[C@@H]1N[C@@H]12', 'Ovcar3-GTL catenae', 3),
  ('C=CCNC1=C2C[C@@H](C)C[C@H](OC)[C@H](O)[C@@H](C)/C=C(\C)[C@H](OC(N)=O)[C@@H](OC)/C=C\C=C(/C)C(=O)NC(=CC1=O)C2=O', 'Ovcar3-GTL catenae', 0.4);

Would you kindly look at the next entry?
// query Entry under review: COc1cccc2c1C(=O)c1c(O)c3c(c(O)c1C2=O)C[C@@](O)(C(C)=O)C[C@@H]3O[C@H]1C[C@H](N)[C@H](O)[C@H](C)O1 . Reported IC50?
// result 0.8

###

# Tested on: established tumor spheroids
# Assay Text: Established tumor spheroid drug sensitivity (alamarBlue)
# Stated Conditions: read-out: spheroid IC50
Observed Property: pIC50
In simple prose, pIC50 is minus the logarithm base ten of a concentration in moles per litre.

// query I would be grateful if you could share the reported pIC50 for COc1cc2c(cc1OC)[C@@H]1C(=O)c3ccc4c(c3O[C@@H]1CO2)C=CC(C)(C)O4 [deguelin] .
// result 6.40

###

# Test system: Ovcar3-GTL catenae
# Assay Text: Ovcar3-GTL catena drug sensitivity / proliferation screen (alamarBlue, 384-well)
# Stated Conditions: read-out: IC50 (μM) No coat, pathway-specific inhibitors; catena cells without glycocalyx coat
Observed Property: IC50 (µM)

INSERT INTO measurements (compound, assayed_system, measured_value) VALUES
  ('CCCCCCCCCCCCCCCCCCOP(=O)([O-])OC1CC[N+](C)(C)CC1', 'Ovcar3-GTL catenae', 3.14);

[A] CCN(CC)CCNC(=O)c1c(C)[nH]c(/C=C2\C(=O)Nc3ccc(F)cc32)c1C [Sunitinib Malate (Sutent), Sunitinib Malate]
[B] O=c1cc(-c2cccc3c2Sc2ccccc2S3)oc(N2CCOCC2)c1
// query Which one would you say has the larger IC50 value: A , or B ? Please identify the chosen entry by its label.
// result B

###

# System: Ovcar3-GTL catenae
# Assay Text: Ovcar3-GTL catena drug sensitivity / proliferation screen (alamarBlue, 384-well)
# Stated Conditions: read-out: IC50 (μM) No coat, pathway-specific inhibitors; catena cells without glycocalyx coat
Where a name gives a salt, the structure may show the parent alone.
Observed Property: IC50

Here are 5 compounds together with their reported answers.
INSERT INTO assay_data (compound, assayed_system, observed_property, measured_value) VALUES
  ('Cn1cc(C2=C(c3ccc(Cl)cc3Cl)C(=O)NC2=O)c2ccccc21 [SB 216763]', 'Ovcar3-GTL catenae', 'IC50', '> 25 µM'),
  ('CS(=O)(=O)c1ccc(C(=O)Nc2ccc(Cl)c(-c3ccccn3)c2)c(Cl)c1 [GDC-0449 (Vismodegib), Vismodegib]', 'Ovcar3-GTL catenae', 'IC50', '> 25 µM'),
  ('OCCn1cc(-c2cnc3nnn(Cc4ccc5ncccc5c4)c3n2)cn1 [PF-04217903]', 'Ovcar3-GTL catenae', 'IC50', '> 25 µM'),
  ('C[C@@H](N)[C@H]1CC[C@H](C(=O)Nc2ccncc2)CC1 [Y27632]', 'Ovcar3-GTL catenae', 'IC50', '> 25 µM'),
  ('OCCn1cc(-c2ccc3c(c2)CC/C3=N\O)c(-c2ccncc2)n1 [GDC-0879]', 'Ovcar3-GTL catenae', 'IC50', '> 25 µM');

// next entry
// query Which measured IC50 value corresponds to Cc1ccc(Nc2nccc(N(C)c3ccc4c(C)n(C)nc4c3)n2)cc1S(N)(=O)=O [Pazopanib Hydrochloride] ?
// result > 25 µM

###

# Tested on: Ovcar3-GTL catenae
# Assay Text: Ovcar3-GTL catena drug sensitivity / proliferation screen (alamarBlue, 384-well)
# Stated Conditions: read-out: IC50 (μM) No coat, pathway-specific inhibitors; catena cells without glycocalyx coat
Counter-ions that a name gives are not always drawn.
Observed Property: IC50 (µM)

Example compounds with recorded IC50:
INSERT INTO results (compound, measure_unit, measured_value) VALUES
  ('COc1cc2c(N3CCN(C(=O)Nc4ccc(OC(C)C)cc4)CC3)ncnc2cc1OCCCN1CCCCC1', 'µM', 13.4),
  ('FC(F)c1nc2ccccc2n1-c1nc(N2CCOCC2)nc(N2CCOCC2)n1', 'µM', 3.14);

[1] CNC(=O)c1cc(Oc2ccc(NC(=O)Nc3ccc(Cl)c(C(F)(F)F)c3)cc2)ccn1 [Sorafenib Tosylate (Bay 43-9006), Sorafenib Tosylate]
[2] Cc1[nH]c(/C=C2\C(=O)Nc3ccc(S(=O)(=O)Cc4c(Cl)cccc4Cl)cc32)c(C)c1C(=O)N1CCC[C@@H]1CN1CCCC1
// query Please state the entry with greater IC50 among 1 and 2 . # answer = label of selected item
// result 1
